tested on: Hs-578T; assay: NCI tumour cell line growth inhibition, 48 h
Activity calls are given as the source filed them. Cut-off read from the data, not from the text of the source: active = GI50 up to about 1.1 µM and inactive = higher.
This listing pairs compounds with measured GI50.

Examples with answers:
>>> reported_result("CSc1ccc(-c2cc(-c3nc4ccccc4[nH]3)no2)cc1")
"37.1 µM (inactive)"
>>> reported_result("COC(=O)N/N=C(/c1nc2ccc([N+](=O)[O-])cc2nc1O)C(O)c1ccc(OC)c(OC)c1 (stereo not drawn)")
"59 µM (inactive)"
>>> reported_result("C/C=C1/CN2CC[C@@H]3c4ccccc4N4[C@H](C(=O)OC)[C@H]1C[C@H]2[C@]34/C=C/C1=COC[C@@H]2[C@H]1C[C@H]1c3c(c4ccccc4n3C)C[C@@H]2N1C")
"4.48 µM (inactive)"
>>> reported_result("COC(=O)C1=C(O)C(C(=O)OC)[C@@]2(O)[C@@H](C(=O)OC)C(c3ccc(OC(=O)/C(=C/c4ccccc4)c4ccccc4)cc3)C[C@@H]1[C@@H]2C(=O)OC (stereo partly drawn)")
"27.7 µM (inactive)"
>>> reported_result("Cc1ccc(S(=O)(=O)NC(C(=O)O)C(C)C)cc1 (stereo not drawn)")
"> 100 µM (inactive)"
>>> reported_result("Cn1c2c3ccc(Cl)cc3nc-2c(Cl)c2ccccc21")
"40.6 µM (inactive)"
>>> reported_result("OCC1OC(NCCNCCNC2OC(CO)C(O)C(O)C2O)C(O)C(O)C1O (stereo not drawn)")
"> 100 µM (inactive)"

In the following, a different compound is considered.
Query block: Entry CC(=O)N1C(OC(C)C)CC(C)N1c1ccccc1 (stereo not drawn) : reported GI50 = ?
Result block: > 10 µM (inactive)
